Data origin: ChEMBL document CHEMBL2093137

Tested on: Plasmodium falciparum K1
assay_explanation: WHO-TDR: Malaria
Format: functional, organism-based, Homo sapiens
condition_description: Erythrocyte
What IC50 was measured for each of the following?

line_notation: Cn1ccnc1N1CCN(CC(=O)Nc2ccccc2C(F)(F)F)CC1
assay_result: > 11 µg/mL
--
line_notation: N#Cc1ccsc1NC(=O)C(c1ccccc1)c1ccccc1
assay_result: > 9.55 µg/mL
--
line_notation: COc1ccc(-c2ccc(OCCNS(=O)(=O)c3ccc(Cl)s3)nn2)cc1
assay_result: > 12.8 µg/mL

Kindly state the measured IC50 obtained for `COc1ccc(Cl)cc1S(=O)(=O)Nc1ccc2c(c1)CCC(=O)N2CCC(C)C` with Plasmodium falciparum K1.
> 13.1 µg/mL
